For each of the binders below, state its T1/2.
Molecular target: TrkB (Homo sapiens (Human), UniProt Q16620 32-430)
Sequence (Q16620 32-430 limits assumed): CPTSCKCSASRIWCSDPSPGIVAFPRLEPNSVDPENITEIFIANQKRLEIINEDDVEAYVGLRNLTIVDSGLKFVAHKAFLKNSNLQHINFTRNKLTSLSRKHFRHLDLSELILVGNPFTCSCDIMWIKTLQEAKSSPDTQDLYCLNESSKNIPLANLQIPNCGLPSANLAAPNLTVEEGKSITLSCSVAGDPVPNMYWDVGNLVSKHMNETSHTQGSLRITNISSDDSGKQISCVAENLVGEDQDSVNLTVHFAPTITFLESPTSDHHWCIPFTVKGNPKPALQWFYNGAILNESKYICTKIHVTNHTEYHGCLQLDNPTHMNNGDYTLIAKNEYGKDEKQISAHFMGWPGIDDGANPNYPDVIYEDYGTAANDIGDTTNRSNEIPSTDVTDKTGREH
Experiment: koff of Fab at 25 C; T1/2=Log2/koff
Numbers only, in min.

{"binder": "12-E11 (Fab, V domains shown, Fab) VH: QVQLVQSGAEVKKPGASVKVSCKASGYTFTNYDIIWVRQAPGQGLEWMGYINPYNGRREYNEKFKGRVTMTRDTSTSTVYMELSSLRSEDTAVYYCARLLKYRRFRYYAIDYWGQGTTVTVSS VL: DIQMTQSPSSLSASVGDRVTITCRASEPVYNNLAWYQQKPGKAPKLLIYAASNLQSGVPSRFSGSGSGTDYTFTISSLQPEDIATYYCQHFWYSPFTFGQGTKLEIK", "reported-value": 11}
{"binder": "4-D4 (Fab, V domains shown, Fab) VH: QVQLVQSGAEVKKPGASVKVSCKASGYTFTNYVILWVRQAPGQGLEWMGYINPYNDGTKYNEKFKGRVTMTRDTSTSTVYMELSSLRSEDTAVYYCARLLKYRRFRYYAIDYWGQGTTVTVSS VL: DIQMTQSPSSLSASVGDRVTITCRASENVYSNLAWYQQKPGKAPKLLIYAASNLQSGVPSRFSGSGSGTDFTFTISSLQPEDIATYYCQHFWYSPFTFGQGTKLEIK", "reported-value": 1.24}
{"binder": "6-C10 (Fab, V domains shown, Fab) VH: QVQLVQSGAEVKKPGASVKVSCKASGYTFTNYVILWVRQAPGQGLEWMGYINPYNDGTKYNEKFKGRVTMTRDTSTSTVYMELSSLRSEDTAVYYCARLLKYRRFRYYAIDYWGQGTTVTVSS VL: DIQMTQSPSSLSASVGDRVTITCRASENVYSNLAWYQQKPGKAPKLLIYAASNLQSGVPSRFSGSGSGTDFTFTISSLQPEDIATYYCQHFWYSWFTFGQGTKLEIK", "reported-value": 1.55}
{"binder": "11-B11 (Fab, V domains shown, Fab) VH: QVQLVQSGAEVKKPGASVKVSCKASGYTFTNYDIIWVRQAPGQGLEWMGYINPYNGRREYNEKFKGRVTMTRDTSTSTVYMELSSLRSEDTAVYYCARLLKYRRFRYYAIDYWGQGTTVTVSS VL: DIQMTQSPSSLSASVGDRVTITCRASEPVYSNLAWYQQKPGKAPKLLIYAASNLQSGVPSRFSGSGSGTDFTFTISSLQPEDIATYYCQHFWGSPFTFGQGTKLEIK", "reported-value": 5.5}
{"binder": "1-D3 (Fab, V domains shown, Fab) VH: QVQLVQSGAEVKKPGASVKVSCKASGYTFTNYVILWVRQAPGQGLEWMGYINPYNDGTKYNEKFKGRVTMTRDTSTSTVYMELSSLRSEDTAVYYCARLLKYRRFSYYAIDEWGQGTTVTVSS VL: DIQMTQSPSSLSASVGDRVTITCRASENVYSNLAWYQQKPGKAPKLLIYAASNLQSGVPSRFSGSGSGTDFTFTISSLQPEDIATYYCQHFWYSPFTFGQGTKLEIK", "reported-value": 0.92}

Field: T1/2. Fill in for each record below.
1. 6-H12 (Fab, V domains shown, Fab) VH: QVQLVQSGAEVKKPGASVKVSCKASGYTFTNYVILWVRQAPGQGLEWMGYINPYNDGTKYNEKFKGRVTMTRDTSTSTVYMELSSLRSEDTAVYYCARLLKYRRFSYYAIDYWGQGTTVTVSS VL: DIQMTQSPSSLSASVGDRVTITCRASENVYSNLAWYQQKPGKAPKLLIYAASNLQSGVPSRFSGSGSGTDFTFTISSLQPEDIATYYCQHFWHSPFTFGQGTKLEIK
2. 7-B8 (Fab, V domains shown, Fab) VH: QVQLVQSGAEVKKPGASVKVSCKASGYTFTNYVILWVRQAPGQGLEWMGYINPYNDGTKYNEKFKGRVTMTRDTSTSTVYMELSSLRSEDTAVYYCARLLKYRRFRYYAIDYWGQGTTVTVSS VL: DIQMTQSPSSLSASVGDRVTITCRASENVYSNLAWYQQKPGKAPKLLIYAASNLQSGVPSRFSGSGSGTDFTFTISSLQPEDIATYYCQHFWYSPCTFGQGTKLEIK
3. 4B12-7 (Fab, V domains shown, Fab) VH: QVQLVQSGAEVKKPGASVKVSCKASGYTFTNYDIIWVRQAPGQGLEWMGYINPYNGRTEYNEKFKGRVTMTRDTSTSTVYMELSSLRSEDTAVYYCARLLKYRRFRYYAIDYWGQGTTVTVSS VL: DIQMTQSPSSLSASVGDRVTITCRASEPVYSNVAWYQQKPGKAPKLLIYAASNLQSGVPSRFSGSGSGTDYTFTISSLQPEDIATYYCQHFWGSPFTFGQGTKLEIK
4. 1-A11 (Fab, V domains shown, Fab) VH: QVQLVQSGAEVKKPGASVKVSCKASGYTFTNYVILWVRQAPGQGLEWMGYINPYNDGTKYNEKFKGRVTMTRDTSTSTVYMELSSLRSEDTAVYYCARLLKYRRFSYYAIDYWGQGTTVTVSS VL: DIQMTQSPSSLSASVGDRVTITCRASENVYSNLAWYQQKPGKAPKLLIYAASNLQSGVPSRFSGSGSGTDFTFTISSLQPEDIATYYCQHFWYSPFTFGQGTKLEIK
5. 9-D6 (Fab, V domains shown, Fab) VH: QVQLVQSGAEVKKPGASVKVSCKASGYTFTNYVILWVRQAPGQGLEWMGYINPYNDGTKYNEKFKGRVTMTRDTSTSTVYMELSSLRSEDTAVYYCARLLKYRRFSYYAIDVWGQGTTVTVSS VL: DIQMTQSPSSLSASVGDRVTITCRASENVYSNLAWYQQKPGKAPKLLIYAASNLQSGVPSRFSGSGSGTDFTFTISSLQPEDIATYYCQHFSYSPFTFGQGTKLEIK

1. 1.54
2. 1.18
3. 7.6
4. 1.08
5. 1.45
